- target.entity: Transcription intermediary factor 1-alpha (Homo sapiens)
- Sequence (O15164 whole entry): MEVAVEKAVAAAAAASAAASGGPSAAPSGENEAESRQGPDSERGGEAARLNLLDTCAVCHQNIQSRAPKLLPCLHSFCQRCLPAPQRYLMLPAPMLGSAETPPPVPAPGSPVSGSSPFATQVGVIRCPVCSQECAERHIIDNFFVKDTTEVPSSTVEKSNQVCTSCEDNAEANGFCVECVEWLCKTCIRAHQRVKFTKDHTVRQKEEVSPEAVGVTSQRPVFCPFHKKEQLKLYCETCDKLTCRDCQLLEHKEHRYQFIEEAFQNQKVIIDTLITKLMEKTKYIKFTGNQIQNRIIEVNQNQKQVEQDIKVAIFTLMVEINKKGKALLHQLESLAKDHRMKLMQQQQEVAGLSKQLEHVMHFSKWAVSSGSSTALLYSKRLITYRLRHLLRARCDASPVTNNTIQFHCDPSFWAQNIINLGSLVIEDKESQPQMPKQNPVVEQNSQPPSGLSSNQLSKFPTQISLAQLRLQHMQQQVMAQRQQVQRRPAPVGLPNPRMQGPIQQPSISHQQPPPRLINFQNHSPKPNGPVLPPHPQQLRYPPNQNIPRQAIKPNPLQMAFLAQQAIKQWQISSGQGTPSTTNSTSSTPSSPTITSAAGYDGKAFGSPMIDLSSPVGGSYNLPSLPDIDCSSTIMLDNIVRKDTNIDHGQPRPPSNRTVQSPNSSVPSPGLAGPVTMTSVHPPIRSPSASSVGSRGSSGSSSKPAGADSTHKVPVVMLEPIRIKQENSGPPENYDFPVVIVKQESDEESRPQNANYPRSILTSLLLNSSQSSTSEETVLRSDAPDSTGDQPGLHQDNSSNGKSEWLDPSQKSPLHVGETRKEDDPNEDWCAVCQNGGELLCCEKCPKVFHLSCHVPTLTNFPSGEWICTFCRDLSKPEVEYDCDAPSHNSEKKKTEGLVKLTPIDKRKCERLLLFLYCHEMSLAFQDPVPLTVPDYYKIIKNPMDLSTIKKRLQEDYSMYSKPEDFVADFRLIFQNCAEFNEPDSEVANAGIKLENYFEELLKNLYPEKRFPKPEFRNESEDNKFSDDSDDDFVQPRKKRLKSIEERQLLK
- test: Inhibition of recombinant TRIM24 (unknown origin) using biotinylated H3 peptide (H3K9me3K18ac) by AlphaScreen assay
pIC50: −log10 of the molar value.
measurement.label: pIC50

Completed entries (count: 3):
Exam item: Can you look up the measured pIC50 of `COc1ccc(CCNc2c(-c3nc[nH]c3C)nc3ccccn23)cc1OC` for me?
Marked response: 4.50

Exam item: What do you get for `c1cn2c(NC3CCCCC3)c(-c3ccc4nccn4c3)nc2cn1` ?
Marked response: 3.49

Exam item: What do you get for `COc1ccc(Nc2c(-c3ccc4nccn4c3)nc3cnccn23)cc1` ?
Marked response: 4.05

1. CCCOc1ccn2c(C(C)=O)cc(-c3nc4cnccn4c3NCCc3ccc(OC)c(OC)c3)c2c1
2. COc1ccc(Nc2c(-c3ccc4nccn4c3)nc3ccc(Br)cn23)cc1
3. COc1ccc(Nc2c(-c3c[nH]c(C)n3)nc3cnccn23)cc1
4. COc1ccc(Nc2c(-c3[nH]cnc3C)nc3ccc(Br)cn23)cc1
Exam item: Reorder the items by pIC50, least to greatest. Labels, requested order.
Marked response: 1, 3, 2, 4
(1: 3.08, 3: 3.41, 2: 3.65, 4: 5.59)

P. COC(=O)c1ccc2nc(-c3nc[nH]c3C)c(NC3CCCCC3)n2c1
Q. COc1ccc(CCNc2c(-c3c[nH]c(C)n3)nc3ccc(Br)cn23)cc1OC
R. COCCNc1c(-c2nc[nH]c2C)nc2ccccn12
Exam item: Reorder the items by pIC50, least to greatest. Labels, requested order.
Marked response: P, Q, R
